# System Tested: HLA-B*39:01
# Method: IEDB peptide-MHC binding, purified MHC/competitive/fluorescence; filed as Kd, often an IC50 or EC50 that approximates it; bounds were set here for any values at or beyond the usual limits of such assays
# Measurement Conditions: source organism: Burkholderia vietnamiensis G4
Readout Name: Kd

GVNDTEAHA has a reported Kd of ≥ 20 µM

====

# System Tested: HLA-A*11:01
# Method: IEDB peptide-MHC binding, purified MHC/direct/fluorescence; filed as Kd, often an IC50 or EC50 that approximates it; bounds were set here for any values at or beyond the usual limits of such assays
# Measurement Conditions: source organism: dengue virus type 2
Readout Name: Kd

Record TVMDIISRK / HLA-A*11:01, Kd recorded as 1.7 nM

Origin of the recorded values: the Immune Epitope Database (IEDB)
